- assayTarget: T1, biotin-labeled human ADM (human, not fully specified; biotin label (named human ADM-C-biotin in Example 1.4; position of the biotin not stated for the other lots))
- T1 construct: Synthetic peptide; also called human ADM-C-biotin; hADM-Biotin
- T1 peptide: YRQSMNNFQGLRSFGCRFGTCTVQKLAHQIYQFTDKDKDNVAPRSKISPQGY
- assayExplanation: BLI (Octet RED96e), as in Example 3
pKd: −log10 of the molar value.
Some binders, each annotated with its measured pKd.

{"columns": ["binder", "pKd"],
 "data": [
  ["Ab2004.Am40 (IgG1 antibody) (antibody, V domains shown, Expressed in CHO cells, human IgG1/kappa) VH: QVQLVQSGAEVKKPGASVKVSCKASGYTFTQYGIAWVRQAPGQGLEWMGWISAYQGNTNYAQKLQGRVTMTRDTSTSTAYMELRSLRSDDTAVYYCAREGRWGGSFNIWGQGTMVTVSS VL: DIQMTQSPSSLSASVGDRVTITCRASQGISSYLAWYQQKPGKAPKLLIYDASNLETGVPSRFSGSGSGTDFTFTISSLQPEDIATYYCQQYDDLPLSFGGGTKVEIKR", 9.45],
  ["Ab2004.Am36 (IgG1 antibody) (antibody, V domains shown, Expressed in CHO cells, human IgG1/kappa) VH: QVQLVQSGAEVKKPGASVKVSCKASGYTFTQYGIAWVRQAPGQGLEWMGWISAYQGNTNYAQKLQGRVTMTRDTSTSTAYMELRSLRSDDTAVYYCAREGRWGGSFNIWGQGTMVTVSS VL: DIQMTQSPSSLSASVGDRVTITCRASQGISSYLAWYQQKPGKAPKLLIYDASNVDTGVPSRFSGSGSGTDFTFTISSLQPEDIATYYCQQYDNLPLTFGGGTKVEIKR", 9.54]
]}
